Tested on: NCI-H226 lung
Assay: NCI-60 one-dose screen, 48 h (100 = growth as untreated, 0 = no growth, -100 = all killed)
Settings: 10 µM
The panel holds about 83,000 compounds, 20% with a hit somewhere; the sample as a whole holds those more often.
Would you mind telling me the reported growth of each entry?
The response must be a number in % with no trailing unit.

Entry `O=C(/C=C/c1cccc(Oc2ccc(Cl)cc2)c1)c1ccccc1` ; growth = 104

Entry `COc1ccc(C(=O)/C=C/c2ccc(OCc3ccc(Cl)cc3)cc2)cc1OC` ; growth = 87.1

Entry `COc1ccc(C(=O)/C=C/c2ccc(OCc3cccc(C(F)(F)F)c3)c(OC)c2)cc1OC` ; growth = 81.4

Entry `CC(=O)/C=C/c1ccc(N(CCO)Cc2ccc(C(C)(C)C)cc2)cc1` ; growth = 72.9

Entry `CC(=O)/C=C/c1ccc(OCc2ccc(C(C)(C)C)cc2)cc1` ; growth = 77.5

Entry `CC(=O)/C=C/c1ccc(N(C)Cc2ccc(C(C)(C)C)cc2)cc1` ; growth = 85.1

====

Would you mind telling me the reported growth of each entry?
Test system: IGROV1 ovarian
Experiment: NCI-60 one-dose screen, 48 h (100 = growth as untreated, 0 = no growth, -100 = all killed)
Conditions: 10 µM unless noted
Experimental: Growth inhibition of the IGROV1 human tumor cell line is measured as a screen for anti-cancer activity. Cells are grown in 96 well plates and exposed to the test compound for 48 hours. Compounds are tested at a single concentration, which is 10^-5 M for most compounds. The reported endpoint is percent growth (GI% or GIPRCNT), where numbers from 0 - 100% represent growth inhibition, and numbers from -100% - 0 represent cell death. For example, a value of 40 represents 60% growth inhibition. […]
Compounds without any hit were thinned out: in the full panel of roughly 83,000, 20% have a hit.
The response must be a number in % with no trailing unit.

Entry `Cc1ccc(-c2nc3nc(-c4ccc(F)cc4)nc(N4CCCNCC4)c3o2)cc1` ; growth = -88.3

Entry Fc1ccc(NC(c2ccc(F)cc2)C2CCN(CCCCc3ccccc3)CC2)cc1 (stereo not drawn) ; growth = 55.9

Entry `CCc1c2c(nc3ccc(OCc4ccc(B5OC(C)(C)C(C)(C)O5)cc4)cc13)-c1cc3c(c(=O)n1C2)COC(=O)[C@]3(O)CC` ; growth = 12.8

Entry C=C(CNCCc1ccc(O)cc1)[C@@H]1CC[C@]2(CO)CC[C@]3(C)[C@H](CC[C@@H]4[C@@]5(C)CCC(NCCc6ccc(O)cc6)C(C)(C)[C@@H]5CC[C@]43C)[C@@H]12 (stereo partly drawn) ; growth = -78.4

Entry `Nc1ccc(/C=N/Nc2ccnc3c(N)cccc23)c2cccnc12` ; growth = 88.4

Entry `COc1cc(/C=C/C(=O)c2ccc(NC(=O)CSc3nnc(-c4cc(-c5ccccc5)nc5ccccc45)n3-c3ccccc3)cc2)cc(OC)c1OC` ; growth = 110

Entry `C=CCOc1ccc(/C=C2\SC(=S)N(CCc3ccc(O)cc3)C2=O)cc1` ; growth = 59.4

Entry `CC1=CC(C)(C)NC(=S)N1c1ccc(Cl)cc1` ; growth = 96.4

====

System: NCI-H226 lung
Experiment: NCI-60 one-dose screen, 48 h
Conditions: 10 µM unless noted
The panel holds about 83,000 compounds, 20% with a hit somewhere; the sample as a whole holds those more often. The source made the active and inactive calls. Rule for the calls: active = growth percent below 10; inactive = the rest.
Give one outcome, nothing more. List: active, inactive

[Q] # lookup: test call for `CC(C)=CCc1cc(O)c(O)c2oc3cc(O)cc(O)c3c(=O)c12`
[A] inactive

[Q] # lookup: test call for `CCc1c2c(nc3ccc(OCc4ccc(B5OC(C)(C)C(C)(C)O5)cc4)cc13)-c1cc3c(c(=O)n1C2)COC(=O)[C@]3(O)CC`
[A] active

[Q] # lookup: test call for `COc1cc(Nc2nc3ccccc3cc2C(=O)Nc2ccc(F)c(F)c2)cc(OC)c1OC`
[A] inactive

[Q] # lookup: test call for `CCOC(=O)C(=CCC(C)C)C(=O)OCC`
[A] inactive

[Q] # lookup: test call for O=C1OCC2=C1C(c1cccc(C(F)(F)F)c1)c1cc3c(cc1N2CCO)OCCO3 (stereo unspecified)
[A] inactive

[Q] # lookup: test call for CCCCCC#CC1OC23CCCCC2C(C#N)(C(=N)O3)C1(C#N)C#N (stereo unspecified)
[A] inactive

[Q] # lookup: test call for `NCCOCCOc1ccccc1`
[A] inactive

[Q] # lookup: test call for `CN1Cn2c(ccc2C(F)(F)F)C(=O)CS1(=O)=O`
[A] inactive

[Q] # lookup: test call for `Nc1nc2c(s1)CCc1cn(S(=O)(=O)c3ccccc3)cc1-2`
[A] inactive

[Q] # lookup: test call for `N#Cc1c(-c2cccc(F)c2)cc(-c2cccnc2)[nH]c1=O`
[A] inactive

[Q] # lookup: test call for Cn1ccnc1CN1CCSC(C(=O)Nc2ccccc2)C1 (stereo unspecified)
[A] inactive

[Q] # lookup: test call for `COc1cc(/C=C2/C=C(c3ccc(C(C)(C)C)cc3)N(CCc3ccc(S(N)(=O)=O)cc3)C2=O)cc(OC)c1OC`
[A] inactive

[Q] # lookup: test call for `CCCNNC(=O)/C=C/c1ccc(CNCCc2c(C)[nH]c3ccccc23)cc1`
[A] inactive

[Q] # lookup: test call for `COc1ccc(/C=C2/C(=O)N=C3N2NC(c2ccccc2)=CN3c2ccccc2)cc1`
[A] inactive

[Q] # lookup: test call for CN(C)CCN1C(=O)c2c(c3c4ccccc4n4c3c3c2c2ccccc2n3C2CC(O)C(O)C4(C)O2)C1=O (stereo unspecified)
[A] inactive

[Q] # lookup: test call for COc1ccc(C(CC(=O)c2ccc3c(c2)OCO3)C(=O)O)cc1OC (stereo unspecified)
[A] inactive

[Q] # lookup: test call for `O=C1c2cc3c(cc2-c2c1c1ccc(Cl)cc1c(=O)n2CCCn1ccnc1)OCO3`
[A] active

[Q] # lookup: test call for `O=C(/C=C/c1ccc(F)cc1)Nc1ncc(Cc2ccc(F)cc2)s1`
[A] inactive

[Q] # lookup: test call for `CN(C)c1ccc2nc3ccc(=O)cc-3sc2c1`
[A] inactive

[Q] # lookup: test call for `N=C(N)c1ccc(-c2ccc(-c3ccc(F)cc3)s2)nc1`
[A] inactive

[Q] # lookup: test call for `Nn1c(-c2ccc(Cl)cc2)nc2c(-c3ccc(Cl)cc3)nc3ccc(Cl)cc3c2c1=O`
[A] active

====

Would you mind telling me the reported growth of each entry?
Tested on: PC-3 prostate
Assay: NCI-60 one-dose screen, 48 h (100 = growth as untreated, 0 = no growth, -100 = all killed)
Conditions: 100 µM
This is part of a sample that, as a whole, favours compounds with a hit. Of some 83,000 tested, about 20% had one in any assay. Active and inactive are the calls of the source. Rule for the calls: active = growth percent below 10; inactive = the rest.

// growth (PC-3 prostate) for `CC(=O)/C=C/c1ccc(N(C)Cc2ccc(C(C)(C)C)cc2)cc1` = -26.1% (active)

// growth (PC-3 prostate) for `CC(=O)/C=C/c1ccc(OCc2ccc(Cl)cc2)cc1` = 36.1% (inactive)

// growth (PC-3 prostate) for `COc1ccc(C(=O)/C=C/c2ccc(OCc3cccc(C(F)(F)F)c3)c(OC)c2)cc1OC` = -7.78% (active)

// growth (PC-3 prostate) for `CCN(Cc1ccccc1)c1ccc(/C=C2\COc3ccccc3C2=O)cc1` = 26.5% (inactive)

====

Would you mind telling me the reported growth of each entry?
Tested on: DU-145 prostate
Experiment: NCI-60 one-dose screen, 48 h (100 = growth as untreated, 0 = no growth, -100 = all killed)
Conditions: 10 µM unless noted
About 83,000 compounds went through this panel and 20% of them were active in at least one assay; those are over-represented in the sample as a whole.
The response must be a number in % with no trailing unit.

Entry `O=C1C(N2CCOCC2)=C(I)C(=O)c2ncccc21` ; growth = 84.8

Entry `[Cu+].[NH-][C@H]1C[N-]C(=O)[C@H]([C@H]2CCN=C(N)N2)[N-]C(=O)/C(=C\NC(N)=O)[N-]C(=O)[C@H](CNC(=O)C[C@@H](N)CCCN)[N-]C(=O)[C@H](CO)[N-]C1=O` ; growth = 112

Entry `COc1ccc(N2CCN(S(=O)(=O)c3oc(-c4ccccc4)nc3C#N)CC2)cc1` ; growth = 104

Entry `COc1ccc2c(c1)c(C(=O)c1nc(-c3cn(C)c4ccccc34)no1)cn2C` ; growth = 111

====

Tested on: SF-539 CNS
Test: NCI-60 one-dose screen, 48 h
Conditions: 10 µM unless noted
The panel holds about 83,000 compounds, 20% with a hit somewhere; the sample as a whole holds those more often. Calls of active or inactive are those of the source. The calls were made as follows: active = growth percent below 10; inactive = the rest.
Give one outcome, nothing more. List: T for active, F for inactive

[Q] # lookup: test call for `COC1=CC(=O)C(OC)=C(O)C1=O`
[A] F

[Q] # lookup: test call for `C/C(=C(\c1ccc(OCCN2CCOCC2)cc1)c1ccc(OC(=O)C2CCCCC2)cc1)c1ccc(Cl)cc1`
[A] F

[Q] # lookup: test call for CCCN1C(=O)/C(=c2\sc3n(c2=O)NC2C(N=3)N(CC)C(=O)N2CC)c2ccccc21 (centres undefined)
[A] T

[Q] # lookup: test call for `Cc1cccc(-c2nnc(SCC(=O)Nc3ncc(Cc4ccccc4)s3)n2N2C(=O)CSC2=S)c1`
[A] F

[Q] # lookup: test call for COc1ccc(/C=N/C2=C(C#N)C(c3ccccc3)c3c(ccc4ccccc34)O2)cc1 (centres undefined)
[A] T

[Q] # lookup: test call for `COc1ccc(-c2nnc3n(C)c(=O)c4ccccc4n23)cc1O`
[A] T

[Q] # lookup: test call for `COC1=CC(c2ccc[nH]2)=N/C1=C\c1[nH]c(C)c(C(=O)Oc2ccccc2)c1C`
[A] T

[Q] # lookup: test call for C=C(CNCCO)[C@@H]1CC[C@]2(CO)CC[C@]3(C)[C@H](CC[C@@H]4[C@@]5(C)CCC(NCCc6ccc(O)cc6)C(C)(C)[C@@H]5CC[C@]43C)[C@@H]12 (some centres undefined)
[A] T

[Q] # lookup: test call for `O=C(NCCCN1CCCCC1)c1ccc(-c2nc3ccc4[nH]ncc4c3c3c2CCCC3)cc1`
[A] F

[Q] # lookup: test call for `COc1ccc(Cn2cc(C(=O)Nc3cccnc3Nc3ccccc3)nn2)cc1`
[A] F

[Q] # lookup: test call for `Nn1c(-c2ccc(Cl)cc2)nc2c(-c3ccc(Cl)cc3)nc3ccc(Cl)cc3c2c1=O`
[A] F

[Q] # lookup: test call for `COc1cc(Nc2nc3ccccc3cc2C(=O)Nc2ccc(F)c(F)c2)cc(OC)c1OC`
[A] F

[Q] # lookup: test call for `C#Cc1cc(C(=O)Nc2ccc(CN3CCN(C)CC3)c(C(F)(F)F)c2)ccc1C`
[A] F

[Q] # lookup: test call for `CCCNNC(=O)/C=C/c1ccc(CNCCc2c(C)[nH]c3ccccc23)cc1`
[A] F

[Q] # lookup: test call for `[2H]C([2H])([2H])Oc1cc(F)ccc1/C=C/C(=O)/C=C(/C=C/c1ccc(F)cc1OC([2H])([2H])[2H])OB(F)F`
[A] F

[Q] # lookup: test call for `O=C1C(c2c[nH]c3ccccc23)=C(c2coc3cc(Br)ccc23)C(=O)N1O`
[A] F

[Q] # lookup: test call for `CN1Cn2c(ccc2C(F)(F)F)C(=O)CS1(=O)=O`
[A] F

[Q] # lookup: test call for `CN1CCN(C(=O)OCc2nc3c(N4CCOCC4)nc(Cl)nc3n2C)CC1`
[A] T

[Q] # lookup: test call for `COc1cc(CNC(=O)CCCC/C=C/C(C)C)ccc1OCc1cn(-c2ccc([N+](=O)[O-])cc2)nn1`
[A] F

[Q] # lookup: test call for `COc1ccc(/C=C2/C(=O)N=C3N2NC(c2ccccc2)=CN3c2ccccc2)cc1`
[A] F

[Q] # lookup: test call for `COc1c(F)cc(-n2c(C(=O)N3CC(F)C3)cc3cccnc32)cc1F`
[A] F

[Q] # lookup: test call for `O=C(CCl)n1nnnc1Cc1ccccc1`
[A] F

[Q] # lookup: test call for `C=C(C)[C@@H]1CC[C@]2(C(=O)N3CCN(C)CC3)CC[C@]3(C)[C@H](CC[C@@H]4[C@@]5(C)CC(CCCNC(C)=O)(CCCNC(C)=O)[C@H](OC(C)=O)C(C)(C)[C@@H]5CC[C@]43C)[C@@H]12`
[A] F

[Q] # lookup: test call for `COc1ccc2c(O)c(/C=C3\N=Nc4nc(C)ccc43)oc2c1CC1CCNCC1`
[A] F

[Q] # lookup: test call for `CCn1cc(C(=O)NN=C2CCCC2)c(=O)c2ccc(C)nc21`
[A] F

[Q] # lookup: test call for `CC1(C)C(N)=Nc2cc(OCCCCN3Cc4ccccc4C3)c(OCC3CC3)cc21`
[A] F

[Q] # lookup: test call for O=C(NNc1ccccc1)C1CCCN1 (centres undefined)
[A] F

[Q] # lookup: test call for `Cc1c(CC(=O)OCCO)cc(-c2ccc(Cl)cc2)n1-c1ccccc1`
[A] F

[Q] # lookup: test call for COc1nc(=O)n(C2C=CC(=O)O2)cc1F (centres undefined)
[A] F

[Q] # lookup: test call for `Cc1ccc2[nH]c(=S)[nH]c(=O)c2c1`
[A] F

[Q] # lookup: test call for `N#Cc1c(N)nnn1Cc1cc(=O)oc2ccc(O)cc12`
[A] F

[Q] # lookup: test call for `Nc1c(C(=O)Nc2ccncc2)sc2nc3c(cc12)CCCCCCCC3`
[A] T

[Q] # lookup: test call for `O=C(c1cccc(Br)c1)N1CCN(c2ccnc3cc(Cl)ccc23)CC1`
[A] F

[Q] # lookup: test call for COc1ccc(C2Nc3nc(SC)nc(N)c3N=C3c4ccccc4CCC32)cc1 (centres undefined)
[A] F

[Q] # lookup: test call for `CCN(CC)CC#CCOC(=O)[C@]1(C)CCC[C@]2(C)c3ccc(C(C)C)cc3CC[C@@H]12`
[A] F

[Q] # lookup: test call for `COc1cc(/C=N/NC(=O)CCN2c3ccccc3Sc3ccccc32)cc(OC)c1OC`
[A] F

[Q] # lookup: test call for `N#CSc1c[nH]c2ccc(/C=C/C(=O)/C=C(/C=C/c3ccc4[nH]cc(SC#N)c4c3)OB(F)F)cc12`
[A] T

[Q] # lookup: test call for `Clc1nccc2c(-c3csc(-c4c[nH]c5ccc(Br)cc45)n3)c[nH]c12`
[A] F

[Q] # lookup: test call for `Cc1ccc(S(=O)(=O)Nc2cc(Sc3ccccc3)c(O)c3ccccc23)cc1`
[A] F
